Cited source for all entries: patent US9328099B2

Molecular target: JAK1 (Homo sapiens (Human))
Test: Jak Biochemical HTRF Assay, JAK1
Conditions: HTRF biochemical assay, GST-tagged catalytic domain; top concentration tested […]; read-out: JAK1 IC50
PROPERTY LABEL: pIC50
Conceptually, pIC50 converts a concentration in mol/L into minus its log10.

Example compounds with recorded pIC50:
compound="N#CCC1(n2cc(C(N)=O)c(Nc3ccc(F)cc3)n2)CCC(N2CC(F)C2)CC1 (stereo not shown) [Example 40-100]" observed=7.74
compound="Cc1ccc(NC(=O)N2CC(CC#N)(n3cc(C(N)=O)c(Nc4ccccc4)n3)C2)cc1C [Example 38-4]" observed=7.92
compound="CC(C)(C)OC(=O)N1CCC(CC#N)(n2cc(C(N)=O)c(Nc3ccnc(C(N)=O)c3)n2)CC1 [Example 9-27]" observed=9.40

Now turn to the next compound.
Summary for this compound, N#CCC(=O)N1CCC(CC#N)(n2cc(C(N)=O)c(Nc3ccccc3)n2)CC1 [Example 36-1] : pIC50 is 8.30

====

Target: JAK2 (Homo sapiens (Human), UniProt O60674)
Sequence (O60674 849-1124): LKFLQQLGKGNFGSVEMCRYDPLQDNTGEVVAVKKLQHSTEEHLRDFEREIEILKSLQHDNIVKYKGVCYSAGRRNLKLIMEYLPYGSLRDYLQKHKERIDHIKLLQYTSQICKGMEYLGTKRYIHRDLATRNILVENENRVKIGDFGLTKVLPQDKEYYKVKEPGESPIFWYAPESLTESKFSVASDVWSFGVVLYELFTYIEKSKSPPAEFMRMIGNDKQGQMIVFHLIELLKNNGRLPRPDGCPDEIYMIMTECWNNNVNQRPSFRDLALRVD
Assay: Jak Biochemical HTRF Assay, JAK2
Settings: HTRF biochemical assay, GST-tagged catalytic domain; top concentration tested […]
Form field: IC50 (one value per entry).
Respond numerically; units are nM and should not be typed.

Illustrative cases are given below, each with its answer.
compound=N#CCC1(n2cc(C(N)=O)c(Nc3ccccc3)n2)CCN(CC2CCCCC2)CC1 observed=319
compound=N#CCC1(n2cc(C(N)=O)c(Nc3ccccc3)n2)CN(C(=O)OCc2ccncc2)C1 observed=353
compound="N#CCC1(n2cc(C(N)=O)c(Nc3ccc(C(O)C(F)(F)F)nc3)n2)CCN(C(=O)OCC(F)(F)F)CC1 (stereo not shown)" observed=0.6

Reported JAK2 (Homo sapiens (Human), UniProt O60674) IC50 for item N#CCC1(n2cc(C(N)=O)c(Nc3ccc(S(=O)(=O)C(F)F)cc3)n2)CCC(NCC(F)(F)F)CC1 (stereo not shown) [Example 40-85] was 0.2

====

Molecular target: JAK1 (Homo sapiens (Human), UniProt P23458)
Sequence (P23458 875-1153): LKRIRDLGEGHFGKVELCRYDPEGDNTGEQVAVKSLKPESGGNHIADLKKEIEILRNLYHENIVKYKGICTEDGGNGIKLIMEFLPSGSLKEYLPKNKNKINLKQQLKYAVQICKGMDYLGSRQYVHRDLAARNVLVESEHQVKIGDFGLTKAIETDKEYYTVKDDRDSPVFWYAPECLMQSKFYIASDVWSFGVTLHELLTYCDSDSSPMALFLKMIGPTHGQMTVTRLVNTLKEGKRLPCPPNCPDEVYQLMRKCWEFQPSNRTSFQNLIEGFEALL
Experiment: Jak Biochemical HTRF Assay, JAK1
Conditions: HTRF biochemical assay, GST-tagged catalytic domain; top concentration tested […]; read-out: JAK1 IC50
Excerpt: Jak Biochemical HTRF Assay Protocol Subsequent reagent additions employed an Agilent Bravo.
Returns the class for an entry based on its IC50. Class ranges: low-valued = under 0.6 nM, mid-valued = from 0.6 nM up to 10 nM, high-valued = 10 nM and over

Worked examples, 3 molecules total:
molecule="CC(CO)OC(=O)N1CCC(CC#N)(n2cc(C(N)=O)c(Nc3ccc(F)cc3)n2)CC1 (stereo not shown)" class_assignment=low-valued
molecule="N#CCC1(n2cc(C(N)=O)c(Nc3ccnc(F)c3)n2)CCC(NCc2cccc(F)c2)CC1 (stereo not shown) [Example 41-19]" class_assignment=low-valued
molecule="CC(=O)N1CCN(C2CCC(CC#N)(n3cc(C(N)=O)c(Nc4ccc(F)cc4)n3)CC2)CC1 (stereo not shown)" class_assignment=high-valued

State the class of the molecule shown: `CC(C)(C)OC(=O)N1CCC(CC#N)(n2cc(C(N)=O)c(Nc3cncc(F)c3)n2)CC1`
mid-valued

Class? Entry: `Cc1cc(C(=O)N2CCC(CC#N)(n3cc(C(N)=O)c(Nc4ccccc4)n3)CC2)no1`
high-valued

Would you mind sorting `N#CCC1(n2cc(C(N)=O)c(Nc3cncc(Cl)c3)n2)CCN(C(=O)OCC(F)(F)F)CC1` into the appropriate category?
low-valued

Which bin, given its IC50, does `N#CCC1(n2cc(C(N)=O)c(Nc3ccnc(F)c3)n2)CCN(Cc2cnn3ccccc23)CC1` occupy?
high-valued

Class label required: `CC(C)(C)OC(=O)N1CCC(CC#N)(n2cc(C(N)=O)c(Nc3cccc(-c4cccc(Cl)c4)c3)n2)CC1`
high-valued

Assign a bin to `N#CCC1(n2cc(C(N)=O)c(Nc3ccc(F)cc3)n2)CCN(c2cccc(CF)n2)CC1`
mid-valued
